Each entry below lists one item and its recorded tissue uptake at 1 h value.
- Test protocol: in vivo
- Measurement parameters: male, NODSCID 1L2RγKO, mouse, iv, total radioactivity, Fat uptake

Study these solved cases before continuing.
[in] GET /values?readout=tissue uptake at 1 h&item= O=C(O)CN1CCN(CC(=O)O)CCN(CC(=O)NC[C@H]2CC[C@H](C(=O)N[C@@H](Cc3c4ccccc4cc4ccccc34)C(=O)NCCCC[C@H](NC(=O)N[C@@H](C[C@@H](F)C(=O)O)C(=O)O)C(=O)O)CC2)CCN(CC(=O)O)CC1 [68Ga-HTK04033, metal not drawn]
[out] 0.1 %ID/g

[in] Can you look up the measured tissue uptake at 1 h of O=C(O)COC[C@H](NC(=O)N[C@@H](CCCCNC(=O)[C@H](Cc1c2ccccc2cc2ccccc12)NC(=O)[C@H]1CC[C@H](CNC(=O)CN2CCN(CC(=O)O)CCN(CC(=O)O)CCN(CC(=O)O)CC2)CC1)C(=O)O)C(=O)O [68Ga-HTK03187, metal not drawn] for me?
[out] 0.07 %ID/g

[in] Give its tissue uptake at 1 h value. Item: O=C(O)CCC[C@H](NC(=O)N[C@@H](CCCCNC(=O)[C@H](Cc1c2ccccc2cc2ccccc12)NC(=O)c1ccc(NC(=O)CN2CCN(CC(=O)O)CCN(CC(=O)O)CCN(CC(=O)O)CC2)cc1)C(=O)O)C(=O)O [68Ga-HTK04041, metal not drawn]
[out] 0.11 %ID/g

Next:
[in] Using the record for O=C(O)CCC[C@H](NC(=O)N[C@@H](CCCCNC(=O)[C@H](Cc1c2ccccc2cc2ccccc12)NC(=O)Cc1cccc(CNC(=O)CN2CCN(CC(=O)O)CCN(CC(=O)O)CCN(CC(=O)O)CC2)c1)C(=O)O)C(=O)O [68Ga-HTK04037, metal not drawn] , report its tissue uptake at 1 h.
[out] 0.06 %ID/g
